- Assay Protocol: Microsomal stability
- Assay type: in vitro ADME, mouse
- Assay Context: mouse, microsomes, pH 7.4
Measurement Kind: microsomal CLint at 1 µM (µL/min/mg)
# unit: µL/min/mg | format: bare number

# return recorded microsomal CLint at 1 µM for input `CC(C)(O)[C@H]1CCCN1c1ncnc2[nH]ccc12`
73

Output microsomal CLint at 1 µM of CC(c1ccccc1)C(CO)Nc1ncnc2[nH]ccc12 (stereo not shown)
166

Could you please provide reported microsomal CLint at 1 µM for O=C1CCCN1Nc1ncnc2[nH]c3cc(F)ccc3c12 [AVI-219, reference compound] ? Thanks!
53.1

Now look at this entry.
Annotate the molecule `C[C@H]1CCCN(c2ncnc3[nH]ccc23)[C@H]1CO` with its measured microsomal CLint at 1 µM.
44.4

---

- System Under Test: SARS-CoV-2 NSP3 macrodomain (Mac1), P43 crystal form (Severe acute respiratory syndrome coronavirus 2)
- Format: binding
- Assay Context: soak concentration 10 mM; DMSO background map
Measurement Kind: PanDDA run, DMSO background map: 1-BDC
Field format: numeric only.

// solved cases for PanDDA run, DMSO background map: 1-BDC follow
Output measured PanDDA run, DMSO background map: 1-BDC for this item: OCC(COCc1ccccc1)Nc1ncnc2[nH]ccc12 (stereo not drawn)
0.19

# return recorded PanDDA run, DMSO background map: 1-BDC for input CCC(Nc1ncnc2[nH]ccc12)C(C)O (stereo not drawn)
0.23

Give me measured PanDDA run, DMSO background map: 1-BDC, please, for this compound: OCC(Cc1ccoc1)Nc1ncnc2[nH]ccc12 (stereo not drawn)
0.21

Using known records, supply PanDDA run, DMSO background map: 1-BDC for `OC[C@@H]1C[C@H](F)CN1c1ncnc2[nH]ccc12`
0.17

State its PanDDA run, DMSO background map: 1-BDC: OCC1COCCN1c1ncnc2[nH]ccc12 (stereo not drawn)
0.14

Find the measured PanDDA run, DMSO background map: 1-BDC of `C[C@@H](O)[C@H](CO)Nc1ncnc2[nH]ccc12.O=C(O)C(F)(F)F` and report it.
0.14

Answer with the recorded PanDDA run, DMSO background map: 1-BDC of OCC(CC(F)(F)F)Nc1ncnc2[nH]ccc12 (stereo not drawn) only.
0.23

Tell me PanDDA run, DMSO background map: 1-BDC reported for OCC(Nc1ncnc2[nH]ccc12)c1ccccc1 (stereo not drawn)
0.18

Further cases:
Indicate its recorded PanDDA run, DMSO background map: 1-BDC; the compound in question is `OC[C@@H]1C[C@@H]2CCC[C@@H]2N1c1ncnc2[nH]ccc12`
0.29

Please look at this compound and report its PanDDA run, DMSO background map: 1-BDC: `CC(C)(C)[C@@H]1CCN(c2ncnc3[nH]ccc23)[C@H](CO)C1`
0.11

Give the reported PanDDA run, DMSO background map: 1-BDC for this compound. OCC1CC2(CCCCC2)CN1c1ncnc2[nH]ccc12 (stereo not drawn)
0.29

Answer with reported PanDDA run, DMSO background map: 1-BDC of OCCC(CO)Nc1ncnc2[nH]ccc12 (stereo not drawn)
0.25

Please report the measured PanDDA run, DMSO background map: 1-BDC for `O=C(O)C(F)(F)F.OC1([C@H]2CCCN2c2ncnc3[nH]ccc23)Cc2ccccc2C1`
0.2

# return recorded PanDDA run, DMSO background map: 1-BDC for entry OCC1CC2(CCCC2)CN1c1ncnc2[nH]ccc12 (stereo not drawn)
0.32

Provide only the value of recorded PanDDA run, DMSO background map: 1-BDC for `O=C(O)C(F)(F)F.OC[C@@H]1CC2(CC2)CN1c1ncnc2[nH]ccc12`
0.26

---

- System Under Test: SARS-CoV-2 NSP3 macrodomain (Mac1), P43 crystal form (Severe acute respiratory syndrome coronavirus 2, UniProt P0DTD1)
- Type: binding
- Assay Context: site where the ligand is bound in the X-ray crystal structure
Measurement Kind: X-ray crystallography: Binding site

Below, 10 molecules whose answers are already recorded.
State its X-ray crystallography: Binding site for this molecule: `O[C@H]1CC[C@H]2CCN(c3ncnc4[nH]ccc34)[C@H]21`
Adenosine

Note down X-ray crystallography: Binding site recorded for `Cc1c[nH]c2ncnc(NCC3(O)CCOCC3)c12`
Adenosine

Please list X-ray crystallography: Binding site recorded for the molecule `OC1(CNc2ncnc3[nH]ccc23)CCOCC1`
Adenosine

Item CC(O)C1CCCN1c1ncnc2[nH]ccc12 (centres unmarked) : provide X-ray crystallography: Binding site
Adenosine

Complete the entry with X-ray crystallography: Binding site for OCC1C=CCCN1c1ncnc2[nH]ccc12 (centres unmarked)
Adenosine

Output X-ray crystallography: Binding site of `OC[C@@H]1C[C@H](O)CN1c1ncnc2[nH]ccc12`
Adenosine

Give the measured X-ray crystallography: Binding site for OCC1CC=CCN1c1ncnc2[nH]ccc12 (centres unmarked)
Adenosine

Tell me measured X-ray crystallography: Binding site for OCC1C2CCC(C2)N1c1ncnc2[nH]ccc12 (centres unmarked) please.
Adenosine

State its X-ray crystallography: Binding site: CC(C)(O)C1C2CCCCC2CN1c1ncnc2[nH]ccc12 (centres unmarked)
Adenosine

Give the measured X-ray crystallography: Binding site for CC(C)(C)C1CCCN1c1ncnc2[nH]ccc12 (centres unmarked)
Adenosine

Further cases:
Write down X-ray crystallography: Binding site measured for item OC1(CNc2ncnc3[nH]ccc23)CCCC(C(F)(F)F)C1 (centres unmarked)
Adenosine

---

- System Under Test: SARS-CoV-2 NSP3 macrodomain (Mac1), P43 crystal form (Severe acute respiratory syndrome coronavirus 2, UniProt P0DTD1)
- Assay type: binding
- Assay Context: PanDDA background density correction
# 1-BDC listing for each entry below
Lab note: record just the number, no unit beside it.

Report 1-BDC for Cc1nn(C)cc1C1CCC(CO)N1c1ncnc2[nH]ccc12 (centres unmarked)
0.1

---

A collection of compounds and their measured 1-BDC
- System Under Test: SARS-CoV-2 NSP3 macrodomain (Mac1), P43 crystal form (Severe acute respiratory syndrome coronavirus 2, UniProt P0DTD1)
- Assay type: binding
- Assay Context: PanDDA background density correction
Give your answer as a number; write no unit.

Use the examples below as a reference point.
For the compound OCC1CC=CCN1c1ncnc2[nH]ccc12 (centres unmarked) , give its measured 1-BDC value.
0.16

Quick one: give measured 1-BDC for OCC(CC1CC1)Nc1ncnc2[nH]ccc12 (centres unmarked)
0.14

Return reported 1-BDC. Input compound: `O=C(O)C(F)(F)F.O[C@H]1CCC[C@@H]1Nc1ncnc2[nH]ccc12`
0.11

Note down 1-BDC recorded for OCC(Nc1ncnc2[nH]ccc12)c1ccccc1 (centres unmarked)
0.18

Give a short answer stating reported 1-BDC for OCC(CN1CCCCC1)Nc1ncnc2[nH]ccc12 (centres unmarked) .
0.21

More entries:
Please report 1-BDC for the following compound: `Cc1c(C)n(Cc2ccccc2)c2ncnc(N)c12`
0.08

Return 1-BDC for the following compound: `OC1(CNc2ncnc3[nH]ccc23)CCOCC1`
0.15

Annotate the compound `CO[C@@H]1C[C@H](CO)N(c2ncnc3[nH]ccc23)C1` with its measured 1-BDC.
0.26

Annotate the compound OCC(Cc1nccs1)Nc1ncnc2[nH]ccc12 (centres unmarked) with its measured 1-BDC.
0.19

Give a short answer stating reported 1-BDC for `OC1(CNc2ncnc3[nH]ccc23)CCSCC1` .
0.16

Please look at this compound and report its 1-BDC: OC1CCN(c2ncnc3[nH]ccc23)C1 (centres unmarked)
0.15

// Input: OCC1CC2(CCCCC2)CN1c1ncnc2[nH]ccc12 (centres unmarked) . Output its 1-BDC only.
0.29

Consider the compound OC1(CNc2ncnc3[nH]ccc23)CC2CCC1CC2 (centres unmarked) and give its recorded 1-BDC.
0.14

Could you please provide reported 1-BDC for `O=C(O)C(F)(F)F.OCC1(Nc2ncnc3[nH]ccc23)CCC1` ? Thanks!
0.18

Please give measured 1-BDC of the following entry: CC1CCN(C(=O)c2ccc3c(c2)nc(CO)n3C)CC1C(=O)O (centres unmarked)
0.25

Report measured 1-BDC; entry is OC1(CNc2ncnc3[nH]ccc23)COC2CC1C2 (centres unmarked)
0.19

---

- System Under Test: SARS-CoV-2 NSP3 macrodomain (Mac1) (Severe acute respiratory syndrome coronavirus 2)
- Assay Protocol: biochemical
- Type: binding
- Assay Context: preliminary screen, compound at 200 μM, mean of 3-4 technical replicates; read-out: % competition in HTRF assay
inhibition at 200 µM below 90% gives False; inhibition at 200 µM at or above it gives True.

Here's what some known entries look like.
Say whether CC(c1ccccc1)C(CO)Nc1ncnc2[nH]ccc12 (centres unmarked) shows inhibition at 200 µM of 90% or more.
True

For this compound, is measured inhibition at 200 µM 90% or higher? CC(CNC(=O)c1ccc2c(c1)CCC(=O)N2)C(=O)O (centres unmarked)
False

Entry `CC(C)(CO)Nc1ncnc2[nH]ccc12` : is its inhibition at 200 µM no less than 90%?
False

Answer whether inhibition at 200 µM of O=C1CCc2cc(C(=O)N3CC(C(=O)O)CCC34CCCC4)c(F)cc2N1 (centres unmarked) is greater than or equal to 90%.
False

Assess whether reported inhibition at 200 µM for `CC(C)(O)[C@H]1CCCN1c1ncnc2[nH]ccc12` sits at 90% or higher.
True

Does inhibition at 200 µM meet or surpass 90% for OCCC(CO)Nc1ncnc2[nH]ccc12 (centres unmarked) ?
False

Here is the next item to consider.
Item `OC[C@@H]1C[C@H](O)CN1c1ncnc2[nH]ccc12` with inhibition at 200 µM of 90% or above?
False
